Reference source for all entries: patent US9833497B2

Measured MIC against P. vulgaris, listed per entry for reference.
# Test system: Proteus vulgaris
# EXPERIMENTAL DETAILS: MIC against Gram-negative bacteria: Proteus vulgaris
# Type: cell-based
# EXPERIMENTAL SETUP: Proteus vulgaris; 96-well plate, 5×10^5 CFU/mL, 37° C., 10 h
Just the number please, in µg/mL, no unit attached.

Field: example entries. Status: answers known.
PRT1202 (GYDFCSERHNCMENSICRNLNDRAVCSCRDGFRALREDNAYCE; listed as Homo sapiens) = 25
PRT1199 (AFCEEGCRYGGTCVAPNKCVCPSGFTGSHCE; listed as Homo sapiens) = 50
PRT1196 (DVDLCEPSPCRNGARCYNLEGDYYCACPDDFGGKNCS; listed as Homo sapiens) = 25
PRT1203 (DIDECAEGRHYCRENTMCVNTPGSFMCICKTGYIRIDDYSCT; listed as Homo sapiens) = 25
PRT1343 (VFHECFFNPCHNSGTCQQLGRGYVCLCPLGYTGLKCE; listed as Homo sapiens) = 25
PRT1239 (TIPICEGPDACQKDEVCVKPGLCRCKPGFFGAHCS; listed as Homo sapiens) = 50
PRT1238 (IGEACPKLCSGHGYCTTGAICICDESFQGDDCS; listed as Homo sapiens) = 25

Next item in the queue.
Lookup: Find the measured MIC against P. vulgaris of PRT1323 (DCIECPGGAGSPCNGRGSCAEGMEGNGTCSCQEGFGGTACE; listed as Homo sapiens) and report it.
Found: 50

###

# System: Klebsiella pneumonia
# EXPERIMENTAL DETAILS: MIC against Gram-negative bacteria: Klebsiella pneumonia
# Assay type: cell-based
# EXPERIMENTAL SETUP: K. pneumonia; 10 h cultivation at 37° C.; 5×10^5 CFU/mL
Measured MIC (μg/mL) K. pneumonia, listed per entry for reference.
Just the number please, in µg/mL, no unit attached.

Field: example entries. Status: answers known.
PRT791 (SQECQCHNGGTCDAATGQCHCSPGYTGERCQ; listed as Homo sapiens) = 12.5
PRT848 (CQCNNRSASCDALTGACLNCQENSKGNHCEECKEGFYQSPDATKECLR; listed as Homo sapiens) = 25
PRT178 (SGVTCADGPCFNGGLCVGGADPDSAYICHCPPGFQGSNCE; listed as Homo sapiens) = 12.5
PRT780 (EYSSCSRHPCQNGGTCINGRTSFTCACRHPFTGDNCT; listed as Homo sapiens) = 50
PRT764 (AQDKCALGTHGCQHICVNDRTGSHHCECYEGYTLNADKKTCS; listed as Homo sapiens) = 100
PRT744 (GWNECASSNGHCSHLCLAVPVGGFVCGCPAHYSLNADNRTCS; listed as Homo sapiens) = 50
PRT786 (YGKDCALICQCQNGADCDHISGQCTCRTGFMGRHCE; listed as Homo sapiens) = 50

Next item in the queue.
Lookup: Find the measured MIC (μg/mL) K. pneumonia of PRT836 (FGHDCSLTCDDCRNGGTCLLGLDGCDCPEGWTGLICN; listed as Homo sapiens) and report it.
Found: 12.5

###

# System: Moraxella catarrhalis
# EXPERIMENTAL DETAILS: MIC against Gram-negative bacteria: Moraxella catarrhalis
# Format: cell-based
# EXPERIMENTAL SETUP: M. catarrhalis; 10 h cultivation at 37° C.; 5×10^5 CFU/mL
Measured MIC (μg/mL) M. catarrhalis, listed per entry for reference.
Just the number please, in µg/mL, no unit attached.

Lookup: Find the measured MIC (μg/mL) M. catarrhalis of PRT248 (DVDECSARRGGCPQRCVNTAGSYWCQCWEGHSLSADGTLCV; listed as Homo sapiens) and report it.
Found: 25

Lookup: Find the measured MIC (μg/mL) M. catarrhalis of PRT230 (DVDECADPRACPEHATCNNTVGNYSCFCNPGFESSSGHLSFQGLKASCE; listed as Homo sapiens) and report it.
Found: 12.5

Lookup: Find the measured MIC (μg/mL) M. catarrhalis of PRT874 (CNCNQIGSVHDRCNETGFCECREGAAGPKCDDCLPTHYWRQGCYP; listed as Homo sapiens) and report it.
Found: 25

Lookup: Find the measured MIC (μg/mL) M. catarrhalis of PRT254 (PCLEGGTCILSPKGASCNCPHPYTGDRCE; listed as Homo sapiens) and report it.
Found: 25

###

# Test system: Enterobacter cloacae
# EXPERIMENTAL DETAILS: MIC against Gram-negative bacteria: Enterobacter cloacae
# Type: cell-based
# EXPERIMENTAL SETUP: 96-well plate, 5×10^5 CFU/mL, 37° C., 10 h
ATTRIBUTE MEASURED: MIC against E. cloacae (µg/mL)
Just the number please, in µg/mL, no unit attached.

Field: example entries. Status: answers known.
PRT456 (DIDECADSEACGEARCKNLPGSYSCLCDEGFAYSSQEKACR; listed as Homo sapiens) = 12.5
PRT461 (DVDECAWDAHLCREGQRCVNLLGSYRCLPDCGPGFRVADGAGCE; listed as Homo sapiens) = 50
PRT504 (CDCSGNVDPSEAGHCDSVTGECLKCLGNTDGAHCERCADGFYGDAVTAKNCRA; listed as Homo sapiens) = 12.5

Lookup: Find the measured MIC against E. cloacae of PRT555 (CDCSAAGTQGNACRKDPRVGRCLCKPNFQGTHCELCAPGFYGPGCQP; listed as Homo sapiens) and report it.
Found: 50

###

# Tested on: Citrobacter diversus
# EXPERIMENTAL DETAILS: MIC against Gram-negative bacteria: Citrobacter diversus
# Format: cell-based
# EXPERIMENTAL SETUP: C. diversus; 10 h cultivation at 37° C.; 5×10^5 CFU/mL
ATTRIBUTE MEASURED: MIC (μg/mL) C. diversus (µg/mL)
Just the number please, in µg/mL, no unit attached.

PRT154 (DVDECSLAEKTCVRKNENCYNTPGSYVCVCPDGFEETEDACV; listed as Homo sapiens) = 25
PRT190 (ECPLNYCRNGGTCVVEKNGPMCRCRQGWKGNRC; listed as Homo sapiens) = 12.5
PRT779 (VSPCSRGYCDHGGQCQHLPSGPRCSCVSFSIYTAWGEHCE; listed as Homo sapiens) = 50

Next item in the queue.
Lookup: Find the measured MIC (μg/mL) C. diversus of PRT221 (YTECTDGYEWDPDSQHCRDVNECLTIPEACKGEMKCINHYGGYLCL; listed as Homo sapiens) and report it.
Found: 25

###

# System: Proteus vulgaris
# EXPERIMENTAL DETAILS: MIC against Gram-negative bacteria: Proteus vulgaris
# Type: cell-based
# EXPERIMENTAL SETUP: 96-well plate, 5×10^5 CFU/mL, 37° C., 10 h
Measured MIC P. vulgaris, listed per entry for reference.
Please append the unit to your numeric answer.

Field: example entries. Status: answers known.
PRT634 (DIDECQHRHLCAHGQCRNTEGSFQCVCDQGYRASGLGDHCE; listed as Homo sapiens) = 12.5 µg/mL
PRT738 (FHTRCEEDNGGCSHLCLLSPSEPFYTCACPTGVQLQDNGRTCK; listed as Homo sapiens) = 25 µg/mL

Lookup: Find the measured MIC P. vulgaris of PRT648 (DIDECLNPSTCPDEQCVNSPGSYQCVPCTEGFRGWNGQCL; listed as Homo sapiens) and report it.
Found: 50 µg/mL

Lookup: Find the measured MIC P. vulgaris of PRT608 (CDCNGRSQECYFDPELYRSTGHGGHCTNCQDNTDGAHCERCRENFFRLGNNEACSS; listed as Homo sapiens) and report it.
Found: 12.5 µg/mL

Lookup: Find the measured MIC P. vulgaris of PRT641 (QAEECGILNGCENGRCVRVQEGYTCDCFDGYHLDTAK; listed as Homo sapiens) and report it.
Found: 12.5 µg/mL

Lookup: Find the measured MIC P. vulgaris of PRT720 (INECHDPSISGCDHNCTDTLTSFYCSCRPGYKLMSDKRTCV; listed as Homo sapiens) and report it.
Found: 12.5 µg/mL

Lookup: Find the measured MIC P. vulgaris of PRT645 (EINECTVNPDICGAGHCINLPVRYTCICYEGYRFSEQQ; listed as Homo sapiens) and report it.
Found: 50 µg/mL

Lookup: Find the measured MIC P. vulgaris of PRT664 (DINECLTLGLCKDAECVNTRGSYLCTCRPGLMLDPSRSRCV; listed as Homo sapiens) and report it.
Found: 12.5 µg/mL

###

Measured MIC against C. diversus, listed per entry for reference.
# System: Citrobacter diversus
# EXPERIMENTAL DETAILS: MIC against Gram-negative bacteria: Citrobacter diversus
# Type: cell-based
# EXPERIMENTAL SETUP: 96-well plate, 5×10^5 CFU/mL, 37° C., 10 h
Just the number please, in µg/mL, no unit attached.

PRT535 (CQCDIGGALSSMCSGPSGVCQCREHVVGKVCQRPENNYYFPDLHH; listed as Homo sapiens) = 50
PRT464 (DLDECRVRNLCQHACRNTEGSYQCLCPAGYRLLPSGKNCQ; listed as Homo sapiens) = 50
PRT567 (CTCDPAGSQNEGICDSYTDFSTGLIAGQCRCKLNVEGEHCDVCKEGFYDLSSEDPFGCKS; listed as Homo sapiens) = 12.5

Lookup: Find the measured MIC against C. diversus of PRT531 (CDCNLEGVLPEICDAHGRCLCRPGVEGPRCDTCRSGFYSFPICQA; listed as Homo sapiens) and report it.
Found: 50

Lookup: Find the measured MIC against C. diversus of PRT548 (CPCPLSVPSNNFAEGCVLRGGRTQCLCKPGYAGASCERCAPGFFGNPLVLGSSCQP; listed as Homo sapiens) and report it.
Found: 50

Lookup: Find the measured MIC against C. diversus of PRT527 (CPCPHTNSFATGCVVNGGDVRCSCKAGYTGTQCERCAPGYFGNPQKFGGSCQP; listed as Homo sapiens) and report it.
Found: 25

Lookup: Find the measured MIC against C. diversus of PRT497 (CACPHSPPASFSPTCVLEGDHDFRCDACLLGYEGKHCERCSSSYYGNPQTPGGSCQK; listed as Homo sapiens) and report it.
Found: 25

Lookup: Find the measured MIC against C. diversus of PRT522 (CVCNGHAEVCNINNPEKLFRCECQHHTCGETCDRCCTGYNQRRWRPAAWEQSHECEA; listed as Homo sapiens) and report it.
Found: 25

Lookup: Find the measured MIC against C. diversus of PRT541 (CSCDLRGTLGGVAECQPGTGQCFCKPHVCGQACASCKDGFFGLDQADYFGCRS; listed as Homo sapiens) and report it.
Found: 12.5

Lookup: Find the measured MIC against C. diversus of PRT458 (ECSRLCRNGYCTPTGKCCCSPGWEGDFC; listed as Homo sapiens) and report it.
Found: 12.5

Lookup: Find the measured MIC against C. diversus of PRT465 (ALDPCASGPCLNGGSCSNTQDPQSYHCSCPRAFTGKDCG; listed as Homo sapiens) and report it.
Found: 50

Lookup: Find the measured MIC against C. diversus of PRT510 (CDCFLPGTDATTCDSETKKCSCSDQTGQCTCKVNVEGIHCDRCRPGKFGLDAKNPLGCSS; listed as Homo sapiens) and report it.
Found: 12.5

Lookup: Find the measured MIC against C. diversus of PRT563 (CVCNYLGTVQEHCNGSDCQCDKATGQCLCLPNVIGQNCDRCAPNTWQLASGTGCDP; listed as Homo sapiens) and report it.
Found: 25

Lookup: Find the measured MIC against C. diversus of PRT495 (CDCDLRGTSGDACNLEQGLCGCVEETGACPCKENVFGPQCNECREGTFALRADNPLGCSP; listed as Homo sapiens) and report it.
Found: 25
